EXPERIMENTAL_SYSTEM: recombinant human plasminogen activator inhibitor-1 (PAI-1) (Homo sapiens)
Construct: purchased Molecular Innovations, Royal Oak, Mich
Sequence (P05121 24-402): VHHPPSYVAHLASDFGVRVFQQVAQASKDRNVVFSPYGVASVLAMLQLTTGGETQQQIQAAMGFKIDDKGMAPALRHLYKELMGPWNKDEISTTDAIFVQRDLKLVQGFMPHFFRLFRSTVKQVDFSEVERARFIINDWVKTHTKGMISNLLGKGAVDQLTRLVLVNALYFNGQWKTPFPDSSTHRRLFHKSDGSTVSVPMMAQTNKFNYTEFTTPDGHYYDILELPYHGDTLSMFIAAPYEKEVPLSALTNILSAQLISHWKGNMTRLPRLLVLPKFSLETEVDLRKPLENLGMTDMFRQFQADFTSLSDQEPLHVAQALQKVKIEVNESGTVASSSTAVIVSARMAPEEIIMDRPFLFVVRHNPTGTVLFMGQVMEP
ASSAY_REMARKS: Primary Screen for the PAI-1 Inhibition (residual tPA activity, Spectrozyme-tPA chromogenic substrate)
Type: biochemical
ASSAY_CONTEXT: 25 μM test compound
MEASUREMENT_NAME: inhibition at 25 µM (%)
Please respond with the number in % and leave the unit unwritten.

Supply measured inhibition at 25 µM of CC(C)(C)c1ccc(Cn2cc(C(=O)C(=O)O)c3ccc(-c4ccc(C(F)(F)F)cc4)cc32)cc1 [Example 7] in your reply.
26

Supply measured inhibition at 25 µM of O=C(O)C(=O)c1cn(CCCC2CCCC2)c2ccc(-c3cccc(C(F)(F)F)c3)cc12 [Example 58] in your reply.
61

Supply measured inhibition at 25 µM of O=C(O)C(=O)c1cn(C2CCCC2)c2ccc(-c3cccc(C(F)(F)F)c3)cc12 [Example 54] in your reply.
46

Supply measured inhibition at 25 µM of O=C(O)C(=O)c1cn(CC2CCC2)c2ccc(-c3cccc(C(F)(F)F)c3)cc12 [Example 55] in your reply.
51

Supply measured inhibition at 25 µM of CCn1cc(C(=O)C(=O)O)c2ccc(-c3ccc(OC(F)(F)F)cc3)cc21 [Example 3] in your reply.
24

Supply measured inhibition at 25 µM of Cn1cc(C(=O)C(=O)O)c2ccc(-c3ccc(OC(F)(F)F)cc3)cc21 [Example 1] in your reply.
15

Supply measured inhibition at 25 µM of O=C(O)C(=O)c1cn(CC2CCCCC2)c2ccc(-c3cccc(C(F)(F)F)c3)cc12 [Example 57] in your reply.
57

Supply measured inhibition at 25 µM of O=C(O)C(=O)c1cn(Cc2ccccc2)c2cccc(-c3ccc(C(F)(F)F)cc3)c12 [Example 13] in your reply.
27

Supply measured inhibition at 25 µM of O=C(O)c1cn(Cc2ccccc2)c2ccc(-c3ccc(F)c(Cl)c3)cc12 [Example 62] in your reply.
53

Supply measured inhibition at 25 µM of CCCCn1cc(C(=O)C(=O)O)c2cc(-c3cccc(OC)c3)ccc21 [Example 31] in your reply.
32

Supply measured inhibition at 25 µM of O=C(O)C(=O)c1cn(C2CCCC2)c2ccc(-c3cccc(Cl)c3)cc12 [Example 45] in your reply.
45

Supply measured inhibition at 25 µM of CC1CCC(n2cc(C(=O)C(=O)O)c3cc(-c4cccc(C(F)(F)F)c4)ccc32)C1 (centres unmarked) [Example 56] in your reply.
54

Supply measured inhibition at 25 µM of CC1CCC(n2cc(C(=O)C(=O)O)c3cc(-c4ccc(C(F)(F)F)cc4)ccc32)C1 (centres unmarked) [Example 51] in your reply.
58

Supply measured inhibition at 25 µM of CC(=O)OCc1c(C(=O)C(=O)O)c2cc(-c3ccc(OC(F)(F)F)cc3)ccc2n1Cc1ccc(C)cc1 [Example 41] in your reply.
13

Supply measured inhibition at 25 µM of COc1ccc(-c2ccc3c(c2)c(C(=O)C(=O)O)cn3CC2CCCCC2)cc1 [Example 59] in your reply.
58

Supply measured inhibition at 25 µM of O=C(O)C(=O)c1cn(Cc2ccccc2)c2cc(-c3ccc(C(F)(F)F)cc3)ccc12 [Example 6] in your reply.
27

Supply measured inhibition at 25 µM of O=C(O)C(=O)c1cn(CC2CCC2)c2ccc(-c3ccc(C(F)(F)F)cc3)cc12 [Example 50] in your reply.
59

Supply measured inhibition at 25 µM of CC(C)(C)c1ccc(-c2ccc3c(c2)c(C(=O)C(=O)O)cn3Cc2ccccc2)cc1 [Example 14] in your reply.
55

Supply measured inhibition at 25 µM of Cn1cc(C(=O)O)c2ccc(-c3ccc(C(C)(C)C)cc3)cc21 [Example 61] in your reply.
28

Supply measured inhibition at 25 µM of Cn1cc(C(=O)C(=O)O)c2ccc(-c3ccc(C(C)(C)C)cc3)cc21 [Example 10] in your reply.
33

Supply measured inhibition at 25 µM of CCCCn1cc(C(=O)C(=O)O)c2cc(-c3ccc(OC)cc3)ccc21 [Example 32] in your reply.
28

Supply measured inhibition at 25 µM of O=C(O)C(=O)c1cn(Cc2ccccc2)c2cc(-c3ccccc3)ccc12 [Example 23] in your reply.
40

Supply measured inhibition at 25 µM of O=C(O)C(=O)c1cn(C2CCCC2)c2ccc(-c3ccc(C(F)(F)F)cc3)cc12 [Example 49] in your reply.
54

Supply measured inhibition at 25 µM of Cn1cc(C(=O)O)c2ccc(-c3ccc(C(F)(F)F)cc3)cc21 [Example 60] in your reply.
39

Supply measured inhibition at 25 µM of O=C(O)C(=O)c1cn(Cc2ccccc2)c2ccc(-c3ccc(C(F)(F)F)cc3)cc12 [Example 9] in your reply.
40

Supply measured inhibition at 25 µM of O=C(O)C(=O)c1cn(CC2CCCCC2)c2ccc(-c3ccc(C(F)(F)F)cc3)cc12 [Example 52] in your reply.
59

Supply measured inhibition at 25 µM of O=C(O)C(=O)c1cn(CCCC2CCCC2)c2ccc(-c3ccc(C(F)(F)F)cc3)cc12 [Example 53] in your reply.
67

Supply measured inhibition at 25 µM of CC(=O)c1ccc(-c2ccc3c(c2)c(C(=O)C(=O)O)cn3Cc2ccccc2)cc1 [Example 11] in your reply.
19

Supply measured inhibition at 25 µM of O=C(O)C(=O)c1cn(CC2CCC2)c2ccc(-c3cccc(Cl)c3)cc12 [Example 46] in your reply.
45
